Data provenance is PubChem BioAssay (NCI).

# System: SNB-19 CNS
# assayName: NCI tumour cell line growth inhibition, 48 h
measurementType: TGI

Quick one: TGI for CN1CCN(CCCOc2ccc3ncnc(Nc4ccc(Oc5cccc(C(F)(F)F)c5)c(Cl)c4)c3c2)CC1 ?
3.8 µM

Quick one: TGI for CCC1=NC(N/N=C/c2ccccc2O)=N/C1=C\c1ccccc1O ?
> 100 µM

Quick one: TGI for Cc1nc2c(s/c(=N\N)n2-c2ccccc2)c(=O)[nH]1 ?
> 100 µM

Quick one: TGI for Cc1cccc(NC(=O)CSc2nnc(Cc3ccccc3)o2)c1 ?
> 100 µM

Quick one: TGI for Cn1c(Cc2ccccc2)nc2cc3ccccc3cc21 ?
> 100 µM

Quick one: TGI for N#Cc1c(SCc2ccccc2)nc2[nH]c(=S)[nH]c(=S)c2c1-c1ccco1 ?
> 100 µM

Quick one: TGI for COC(=O)C(Cc1ccccc1)C(=O)NC(CNC(=O)OCc1ccccc1)C(=O)OCc1ccccc1 (stereo unspecified) ?
> 100 µM

Quick one: TGI for C=CCNC(NCC=C)=C(C(Cl)=C(Cl)Cl)[N+](=O)[O-] ?
> 100 µM

Quick one: TGI for CO/C=C/c1cc2c(cc1C(OC)OC)OCO2 ?
> 100 µM

Quick one: TGI for O=C(/C=C/C12c3ccccc3C(c3ccccc31)C1C(=O)NC(=O)C12)c1ccco1 (stereo unspecified) ?
5.17 µM

Quick one: TGI for COc1ccc(/C=c2/[nH]c(=O)/c(=C\c3ccc(OCc4ccccc4)cn3)[nH]c2=O)cc1 ?
> 100 µM

Quick one: TGI for CC1=C/C(=N\N(C)C)C(C(O)(C(F)(F)F)C(F)(F)F)C(C)(C)C1 (stereo unspecified) ?
> 100 µM

Quick one: TGI for CCC(=O)Nc1ccc2c(c1)CN1C(=O)c3ccccc3C1=N2 ?
> 100 µM

Quick one: TGI for O=C1OC(c2ccccc2)=N/C1=C/c1cccs1 ?
> 100 µM

Quick one: TGI for CCCN(CCC)C(=S)N/N=C/c1cccc(C)n1 ?
> 100 µM

Quick one: TGI for O=C1C(Br)=C(c2ccccc2)C(c2ccccc2)=C1c1ccccc1 ?
24.2 µM

Quick one: TGI for Cc1cc(Nc2ncc(Cl)c(Nc3ccccc3S(=O)(=O)C(C)C)n2)c(OC(C)C)cc1C1CCNCC1 ?
3.14 µM

Quick one: TGI for C=C1C(=O)O[C@H]2[C@H]1CC/C(Cn1cc(Cn3ccc4cc(Cl)ccc43)nn1)=C\CC[C@@]1(C)O[C@@H]21 ?
4.49 µM

Quick one: TGI for O=C1C=CC(=O)N1c1ccc2c(c1)Cc1cc(NC(=O)C(F)(F)F)ccc1-2 ?
> 65.5 µM

Quick one: TGI for CCOC(=O)c1ccc(C(O)CC(=O)OC(C)(C)C)[nH]1 (stereo unspecified) ?
> 100 µM

Quick one: TGI for C=CCN1C(=O)N/C(=C\c2ccc(Cl)cc2)C1=O ?
> 100 µM
